Hi there, I'd appreciate the recorded D37 (37% survival) for every entry that follows.
System: Neil1-KO MEFs
protocol description: cell survival assay (CellTiter Glo), Neil1-KO MEFs
Format: cell-based, mouse
run parameters: Neil1 knockout MEFs, 72 h exposure
Report as: number unit

The reported D37 (37% survival) of the compound Cc1cc(/C=C/C#N)cc(C)c1Nc1nc(Nc2ccc3scnc3c2)c2nc[nH]c2n1 [Purine P2] was 10 µM

Note to self: D37 (37% survival) recorded for Cc1cc(/C=C/C#N)cc(C)c1Nc1nc(Nc2ccc3c(c2)CCC3)c2nc[nH]c2n1 was 15 µM

Query Cc1cc(/C=C/C#N)cc(C)c1Nc1nc(Nc2ccc3c(c2)OCO3)c2nc[nH]c2n1 yields D37 (37% survival) of 11 µM

Input Cc1nc2ccc(Nc3nc(Nc4c(C)cc(/C=C/C#N)cc4C)nc4[nH]cnc34)cc2s1 . Output D37 (37% survival): 8 µM

---

Test system: wild-type MEFs
protocol description: cell survival assay (CellTiter Glo), wild-type MEFs
Assay type: cell-based, mouse
run parameters: WT MEFs, 72 h exposure
measurement name: D37 (37% survival) (µM)
The answer is to be given in µM; state only the numeric part.

Summary: Cc1cc(/C=C/C#N)cc(C)c1Nc1nc(Nc2ccc3c(c2)OCO3)c2nc[nH]c2n1 [Purine P8] , wild-type MEFs, D37 (37% survival) = 7

The compound Cc1nc2ccc(Nc3nc(Nc4c(C)cc(/C=C/C#N)cc4C)nc4[nH]cnc34)cc2s1 [Purine P6] on wild-type MEFs: D37 (37% survival) was 5

Result for Cc1cc(/C=C/C#N)cc(C)c1Nc1nc(Nc2ccc3c(c2)CCC3)c2nc[nH]c2n1 [Purine P7] , tested on wild-type MEFs, D37 (37% survival): 12

Response field D37 (37% survival) (wild-type MEFs) for item Cc1cc(/C=C/C#N)cc(C)c1Nc1nc(Nc2ccc3scnc3c2)c2nc[nH]c2n1 [Purine P2] : 6

---

target under test: T4 pyrimidine dimer DNA glycosylase (T4-pdg) (Enterobacteria phage T4, UniProt P04418)
Construct: made in house
Sequence (P04418 whole entry): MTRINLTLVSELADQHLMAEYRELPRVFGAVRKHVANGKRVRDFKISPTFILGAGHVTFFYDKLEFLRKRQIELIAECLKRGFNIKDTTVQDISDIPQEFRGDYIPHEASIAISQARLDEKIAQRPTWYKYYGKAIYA
protocol description: UV-irradiated plasmid nicking assay
Format: biochemical
run parameters: 40 µM inhibitor, 15 min; read-out: inhibition of T4-pdg activity (reduction in nicks per plasmid)
measurement name: inhibition at 40 µM

Cc1cc(/C=C/C#N)cc(C)c1Nc1nc(Nc2ccc3scnc3c2)c2nc[nH]c2n1 [Purine P2] has a reported inhibition at 40 µM of < 1%

// sample Cc1cc(/C=C/C#N)cc(C)c1Nc1nc(Nc2ccc3c(c2)CCC3)c2nc[nH]c2n1 , its inhibition at 40 µM was 13%

Noted for Cc1nc2ccc(Nc3nc(Nc4c(C)cc(/C=C/C#N)cc4C)nc4[nH]cnc34)cc2s1 : its inhibition at 40 µM reads 32%

Item: Cc1cc(/C=C/C#N)cc(C)c1Nc1nc(Nc2ccc3c(c2)OCO3)c2nc[nH]c2n1 | inhibition at 40 µM: 14%

---

target under test: NEIL1 (Homo sapiens, UniProt Q96FI4)
Construct: made in house
Sequence (Q96FI4 whole entry): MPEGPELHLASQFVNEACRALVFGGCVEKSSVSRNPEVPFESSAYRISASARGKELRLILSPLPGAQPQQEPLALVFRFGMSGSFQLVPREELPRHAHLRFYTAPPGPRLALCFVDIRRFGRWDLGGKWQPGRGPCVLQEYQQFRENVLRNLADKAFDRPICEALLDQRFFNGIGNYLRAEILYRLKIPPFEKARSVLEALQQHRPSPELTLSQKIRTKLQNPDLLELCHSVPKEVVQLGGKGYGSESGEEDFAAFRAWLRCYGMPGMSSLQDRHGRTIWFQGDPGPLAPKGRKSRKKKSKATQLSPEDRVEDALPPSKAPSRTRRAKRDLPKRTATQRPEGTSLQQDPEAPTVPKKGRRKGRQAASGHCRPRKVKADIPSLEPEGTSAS
protocol description: gel-based incision assay of oligodeoxynucleotides containing site-specific base lesions
Assay type: biochemical
run parameters: polyacrylamide gel, reaction quenched at 20 min
pIC50: −log10 of the molar value.
Provide the reported pIC50 of each item.

Record summary for CC(=O)c1ccc(N2CCN(C(=O)C3CCCN(c4ncnc5c4nc4n5CCCCC4)C3)CC2)cc1 (stereo not drawn) [Purine P27] : reported pIC50 = < 4.30

c1ccc(COc2ccc(Nc3ncnc4nc[nH]c34)cc2)cc1 [Purine P26] has a reported pIC50 of < 4.70

Sure, the documented pIC50 for N#Cc1nc(Nc2cc(F)cc(F)c2)c2ncn(CCCN3CCCC3)c2n1 [Purine P5] is < 4.30

Short answer for COc1ccc2[nH]cc(CCNC(=O)/C=C/[C@H]3O[C@@H](n4cnc5c(NC(=O)c6ccccc6)ncnc54)[C@H](O)[C@@H]3O)c2c1 [Purine P35] : pIC50 was < 4.30

For reference, reported pIC50 for CC(C)n1cnc2c(N(C)c3ccccc3)nc(N(CCN(C)C)Cc3ccccc3)nc21 [Purine P13] stands at < 4.30

The reported pIC50 of the molecule Cc1cc(/C=C/C#N)cc(C)c1Nc1nc(Nc2ccc3c(c2)OCO3)c2nc[nH]c2n1 [Purine P8] was 4.82

COc1cccc(-c2cc(CNC(=O)[C@H]3O[C@@H](n4cnc5c(N)ncnc54)[C@H](O)[C@@H]3O)no2)c1 [Purine P34] has a reported pIC50 of < 4.30

Field pIC50 (entry CCOCCCNc1ncnc2c1nc1n2CCCC1 [Purine P42] ) reads < 4.30

Cc1ccc(NC(=O)C2CCCN(c3ncnc4c3nc3n4CCCCC3)C2)cc1Cl (stereo not drawn) [Purine P22] yielded pIC50 of < 4.30

Entry Cc1nc2ccc(Nc3nc(Nc4c(C)cc(/C=C/C#N)cc4C)nc4[nH]cnc34)cc2s1 [Purine P6] , pIC50 reported as 5.04

Reported pIC50 of CNC(=O)[C@H]1O[C@H](n2cnc3c(NCc4cccc(I)c4)ncnc32)[C@@H](O)[C@@H]1O [Purine P30] : < 4.30

The molecule Cc1cccc(OCCSc2nc3c([nH]2)c(=N)ncn3Cc2ccccc2)c1 [Purine P39] showed pIC50 equal to < 4.30

For reference, reported pIC50 for CCNc1nc(C#N)nc2c1ncn2-c1cccc(Cl)c1 [Purine P10] stands at < 4.30

According to the records, this molecule CN(C)CCNc1ncnc2c1ncn2[C@H]1CN(Cc2ccc(-c3ccccc3)cc2)C[C@@H](CO)O1 [Purine P16] displays pIC50 of < 4.30

According to the records, this molecule O=C(C1CCCN(c2ncnc3c2nc2n3CCCCC2)C1)N1CCN(c2ccc(F)cc2)CC1 (stereo not drawn) [Purine P41] displays pIC50 of < 4.30

For reference, reported pIC50 for OC[C@@H]1CN(Cc2ccccc2)C[C@H](n2cnc3c(N4CCN(c5ccccc5)CC4)ncnc32)O1 [Purine P38] stands at < 4.30

So for Cc1cc(C)c(CN2CCN(C(=O)Cn3cnc4c(NCc5ccccc5)ncnc43)CC2)c(C)c1 [Purine P25] , the logged pIC50 turned out to be < 4.70

The molecule identified as CC(C)[C@H](CO)N(Cc1cccc(F)c1)c1nc(Nc2cccc(Cl)c2)c2ncn(C(C)C)c2n1 [Purine P32] registered its pIC50 at 4.71

get_value(item= CCc1cccc(NC(=O)C2CCCN(c3ncnc4c3nc3n4CCCCC3)C2)c1 (stereo not drawn) [Purine P28] , readout=pIC50) returns < 4.70

Value of pIC50 reported for the molecule Cc1cc(/C=C/C#N)cc(C)c1Nc1nc(Nc2ccc3scnc3c2)c2nc[nH]c2n1 [Purine P2] is 4.55

Notebook: CC(C)n1cnc2c(NCc3ccccc3)nc(NCc3ccccc3)nc21 [Purine P33] , pIC50 read as < 4.30

Lab note: measured pIC50 of Nc1nc(N)c2[nH]c(-c3ccccc3)nc2n1 [Purine P36] was < 4.30

What the record says about Cc1ccccc1CN1CCC(CNC(=O)C2CCCN(c3ncnc4c3nc3n4CCCCC3)C2)CC1 (stereo not drawn) [Purine P31] : pIC50 is < 4.30

Please fill in: pIC50 reported for O=C(OCC1OC(n2cnc3c(N(C(=O)c4ccccc4)C(=O)c4ccccc4)ncnc32)C(O)C1F)c1ccccc1 (stereo not drawn) [Purine P3] = < 4.30

This collection of values is drawn from paper PMC3857224.
